The origin of these recorded values is patent US20210347873A1.

# system-under-test: T1, biotinylated hBLyS-ECD (human, UniProt Q9Y275 134-285, biotinylated with Biotin-X-X-NHS (molar ratio 7:1); sites not stated)
# T1 construct: also called biotinylated immunogen; biotinylated hBLvS-ECD
# T1 sequence (Q9Y275 134-285): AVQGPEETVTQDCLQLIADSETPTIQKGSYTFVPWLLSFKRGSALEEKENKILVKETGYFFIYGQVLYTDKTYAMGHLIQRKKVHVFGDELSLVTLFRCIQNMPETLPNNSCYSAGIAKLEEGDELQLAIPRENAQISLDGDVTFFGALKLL
# experiment-summary: competition ELISA; competitor 111D10D6G3
reported-property: inhibitory rate (%)

{"columns": ["binder", "reported-property", "result"],
 "data": [
  ["78C11D2D12 (antibody, V domains shown, Mouse hybridoma antibody purified on Protein G) VH: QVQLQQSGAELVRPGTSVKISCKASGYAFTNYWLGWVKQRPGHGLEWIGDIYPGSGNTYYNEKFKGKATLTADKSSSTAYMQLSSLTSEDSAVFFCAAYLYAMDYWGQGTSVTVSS VL: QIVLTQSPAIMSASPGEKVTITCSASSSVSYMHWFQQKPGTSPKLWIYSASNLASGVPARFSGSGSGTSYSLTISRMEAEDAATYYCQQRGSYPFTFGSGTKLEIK", "inhibitory rate (%)", "95%"],
  ["67A2E1D10 (antibody, V domains shown, Mouse hybridoma antibody purified on Protein G) VH: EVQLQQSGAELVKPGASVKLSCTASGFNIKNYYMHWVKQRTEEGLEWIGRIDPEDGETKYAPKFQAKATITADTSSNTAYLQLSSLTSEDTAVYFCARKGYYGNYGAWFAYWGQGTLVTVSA VL: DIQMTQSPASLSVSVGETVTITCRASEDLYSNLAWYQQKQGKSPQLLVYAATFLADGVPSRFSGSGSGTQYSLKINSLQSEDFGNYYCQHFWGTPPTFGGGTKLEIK", "inhibitory rate (%)", "86%"],
  ["111D10D6G3 (antibody, V domains shown, Mouse hybridoma antibody purified on Protein G) VH: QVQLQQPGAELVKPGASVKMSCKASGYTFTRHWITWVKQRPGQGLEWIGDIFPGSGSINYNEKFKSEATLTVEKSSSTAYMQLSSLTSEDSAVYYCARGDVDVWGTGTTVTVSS VL: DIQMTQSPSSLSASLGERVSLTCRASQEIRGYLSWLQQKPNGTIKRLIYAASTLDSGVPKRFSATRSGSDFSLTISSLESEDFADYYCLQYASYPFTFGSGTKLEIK", "inhibitory rate (%)", "95%"],
  ["8E7D9C7F5 (antibody, V domains shown, Mouse hybridoma antibody purified on Protein G) VH: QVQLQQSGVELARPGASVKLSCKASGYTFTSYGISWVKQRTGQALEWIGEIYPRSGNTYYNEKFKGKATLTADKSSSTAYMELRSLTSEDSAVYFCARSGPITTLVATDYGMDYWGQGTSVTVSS VL: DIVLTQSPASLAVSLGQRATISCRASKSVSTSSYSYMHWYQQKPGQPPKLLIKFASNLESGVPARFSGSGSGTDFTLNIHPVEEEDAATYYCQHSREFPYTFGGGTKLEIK", "inhibitory rate (%)", "96%"],
  ["97A3C2H4 (antibody, V domains shown, Mouse hybridoma antibody purified on Protein G) VH: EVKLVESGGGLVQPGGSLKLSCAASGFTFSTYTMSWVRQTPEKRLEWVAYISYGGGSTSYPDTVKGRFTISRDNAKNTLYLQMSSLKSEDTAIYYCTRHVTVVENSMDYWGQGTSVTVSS VL: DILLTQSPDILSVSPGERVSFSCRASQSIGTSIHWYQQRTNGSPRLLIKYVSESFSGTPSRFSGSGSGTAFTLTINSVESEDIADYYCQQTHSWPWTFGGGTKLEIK", "inhibitory rate (%)", "93%"]
]}
